Catalogue of substances with associated % Inhibition at 1 µM
Biological target: angiotensin-II receptor (Homo sapiens, UniProt P30556)
Construct: cell membranes obtained from human neuroblastoma cells (KAN-TS); endogenous in cells; host or cells: KAN-TS human neuroblastoma cells (membranes)
Sequence (P30556 1-359): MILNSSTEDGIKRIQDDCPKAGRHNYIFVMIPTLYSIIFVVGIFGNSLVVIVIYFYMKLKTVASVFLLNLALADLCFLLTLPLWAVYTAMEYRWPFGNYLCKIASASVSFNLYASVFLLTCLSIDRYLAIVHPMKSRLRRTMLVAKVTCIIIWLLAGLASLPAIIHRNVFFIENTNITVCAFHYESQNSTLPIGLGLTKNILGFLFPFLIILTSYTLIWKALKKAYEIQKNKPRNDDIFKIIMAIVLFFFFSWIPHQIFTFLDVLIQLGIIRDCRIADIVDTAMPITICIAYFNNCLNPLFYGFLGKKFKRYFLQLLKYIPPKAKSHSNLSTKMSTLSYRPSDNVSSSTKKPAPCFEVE
Assay: angiotensin-II receptor binding, radioiodinated angiotensin II ligand, membranes of human neuroblastoma cells (KAN-TS)
Settings: 1 µM; KAN-TS cell membranes; 125I-Tyr4, Sar1, Ile8-Angiotensin II
Square brackets hold non-standard residues; d marks the D form. Ends that are not written are not given here. Sar = CNCC(=O)O

SUBSTANCE: Sar-Arg-Val-Cys-Tyr-Ile-His-Pro-Thr ([Sar]RVCYIHPT; not fully specified (bridges); printed as Sar-Arg-Val-Cys-Tyr-Ile-His-Pro-Thr; also: oxorhenium(V) metal complex) [SEQ ID NO:164]
% Inhibition at 1 µM / %: 1

SUBSTANCE: Sar-Arg-Val-Tyr-Ile-His-Gly-Cys-Thr ([Sar]RVYIHGCT; not fully specified (bridges); printed as Sar-Arg-Val-Tyr-Ile-His-Gly-Cys-Thr; also: oxorhenium(V) metal complex) [SEQ ID NO:160]
% Inhibition at 1 µM / %: 5

SUBSTANCE: Sar-Arg-Val-Tyr-Ile-His-Cys-Pro-Thr ([Sar]RVYIHCPT; not fully specified (bridges); printed as Sar-Arg-Val-Tyr-Ile-His-Cys-Pro-Thr; also: oxorhenium(V) metal complex) [SEQ ID NO:161]
% Inhibition at 1 µM / %: 60

SUBSTANCE: Sar-Arg-Val-Tyr-Ile-His-Cys-Gly-Thr ([Sar]RVYIHCGT; not fully specified (bridges); printed as Sar-Arg-Val-Tyr-Ile-His-Cys-Gly-Thr; also: oxorhenium(V) metal complex) [SEQ ID NO:166]
% Inhibition at 1 µM / %: 11

SUBSTANCE: Sar-Arg-Cys-Val-Tyr-Ile-His-Pro-Thr ([Sar]RCVYIHPT; not fully specified (bridges); printed as Sar-Arg-Cys-Val-Tyr-Ile-His-Pro-Thr; also: oxorhenium(V) metal complex) [SEQ ID NO:165]
% Inhibition at 1 µM / %: 1

SUBSTANCE: Sar-Arg-Val-Tyr-Ile-Cys-His-Pro-Thr ([Sar]RVYICHPT; not fully specified (bridges); printed as Sar-Arg-Val-Tyr-Ile-Cys-His-Pro-Thr; also: oxorhenium(V) metal complex) [SEQ ID NO:162]
% Inhibition at 1 µM / %: 20

SUBSTANCE: Sar-Arg-Val-Tyr-Cys-Ile-His-Pro-Thr ([Sar]RVYCIHPT; not fully specified (bridges); printed as Sar-Arg-Val-Tyr-Cys-Ile-His-Pro-Thr; also: oxorhenium(V) metal complex) [SEQ ID NO:163]
% Inhibition at 1 µM / %: 12
